Kindly supply the reported viability, T/C values for the records listed here.
Test system: CN0375-F725-PDC multi-cell spheroids, viability
experiment summary: Anticancer human tumor CN0375-F725-PDC patient-derived colon carcinoma cell line growth inhibition [TAK]
conditions: second compound 0.949 µM; first compound 0.0316 µM; hits give low values
One number for each entry, in %.

See these solved cases before continuing.
[
  {
    "molecule": "CC(C)n1nc(-c2ccc3oc(N)nc3c2)c2c(N)ncnc21 + CC(C)NCC(C(=O)N1CCN(c2ncnc3c2C(C)CC3O)CC1)c1ccc(Cl)cc1",
    "endpoint label": "viability, T/C",
    "numeric readout": 68.3
  },
  {
    "molecule": "COC1CC2CCC(C)C(O)(O2)C(=O)C(=O)N2CCCCC2C(=O)OC(C(C)CC2CCC(OCCO)C(OC)C2)CC(=O)C(C)C=C(C)C(O)C(OC)C(=O)C(C)CC(C)C=CC=CC=C1C (stereo unspecified) + CC(C)NCC(C(=O)N1CCN(c2ncnc3c2C(C)CC3O)CC1)c1ccc(Cl)cc1",
    "endpoint label": "viability, T/C",
    "numeric readout": 78.3
  }
]

List reported viability, T/C for each of these molecules:
1. COc1c(OCCCN2CCOCC2)ccc2c3n(c(=NC(=O)c4cnc(N)nc4)nc12)CCN3 + CC(C)NCC(C(=O)N1CCN(c2ncnc3c2C(C)CC3O)CC1)c1ccc(Cl)cc1
2. CC(C)(C)c1nc(-c2cccc(NS(=O)(=O)c3c(F)cccc3F)c2F)c(-c2ccnc(N)n2)s1 + CC(C)NCC(C(=O)N1CCN(c2ncnc3c2C(C)CC3O)CC1)c1ccc(Cl)cc1

[80.1, 123]

// each listed molecule needs a value for viability, T/C
1. Cc1nc(NC(=O)N2CCCC2C(N)=O)sc1-c1ccnc(C(C)(C)C(F)(F)F)c1 (stereo unspecified) + CC(C)NCC(C(=O)N1CCN(c2ncnc3c2C(C)CC3O)CC1)c1ccc(Cl)cc1
2. CC(C)CC(NC(=O)CNC(=O)c1cc(Cl)ccc1Cl)B1OC(=O)CC(CC(=O)O)(C(=O)O)O1 (stereo unspecified) + CC(C)NCC(C(=O)N1CCN(c2ncnc3c2C(C)CC3O)CC1)c1ccc(Cl)cc1

[101, 60.3]

----------
Test system: CN0375-F725-PDC multi-cell spheroids, viability
experiment summary: Anticancer human tumor CN0375-F725-PDC cell line growth inhibition [TAK];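 also: spheroids exposed to drugs for seven days; 100% = DMSO vehicle control wells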
conditions: second compound 0.3 µM; first compound 0.316 µM; hits give low values
For each record, write down the corresponding viability, T/C.
One number for each entry, in %.

[
  {
    "compound": "COc1c(OCCCN2CCOCC2)ccc2c3n(c(=NC(=O)c4cnc(N)nc4)nc12)CCN3 + CC(C)NCC(C(=O)N1CCN(c2ncnc3c2C(C)CC3O)CC1)c1ccc(Cl)cc1",
    "system name": "CN0375-F725-PDC multi-cell spheroids, viability",
    "quantity unit": "%",
    "viability, T/C": 45.6
  },
  {
    "compound": "Cc1nc(NC(=O)N2CCCC2C(N)=O)sc1-c1ccnc(C(C)(C)C(F)(F)F)c1 (centres undefined) + CC(C)NCC(C(=O)N1CCN(c2ncnc3c2C(C)CC3O)CC1)c1ccc(Cl)cc1",
    "system name": "CN0375-F725-PDC multi-cell spheroids, viability",
    "quantity unit": "%",
    "viability, T/C": 89.5
  },
  {
    "compound": "CC(C)(C)c1nc(-c2cccc(NS(=O)(=O)c3c(F)cccc3F)c2F)c(-c2ccnc(N)n2)s1 + CC(C)NCC(C(=O)N1CCN(c2ncnc3c2C(C)CC3O)CC1)c1ccc(Cl)cc1",
    "system name": "CN0375-F725-PDC multi-cell spheroids, viability",
    "quantity unit": "%",
    "viability, T/C": 124
  }
]

Consider the record given below.
What measured viability, T/C goes with CCCS(=O)(=O)Nc1ccc(F)c(C(=O)c2c[nH]c3ncc(-c4ccc(Cl)cc4)cc23)c1F + CC(C)NCC(C(=O)N1CCN(c2ncnc3c2C(C)CC3O)CC1)c1ccc(Cl)cc1 ?
105
